Hello, the source for this data is ChEMBL document CHEMBL1125337, in case you need it.

# Method: Association constant to Ac2-L-Lys-D-Ala-D-Ala determined at pH 9; Value ranges from (9.5E4-3.5E5)
Value type: Ka (M⁻¹)

CC(=O)N[C@@H]1[C@H](O[C@@H]2c3ccc(c(Cl)c3)Oc3cc4cc(c3O[C@@H]3O[C@@H](CO)[C@@H](O)[C@H](O)[C@@H]3NC(=O)CCCCCCC(C)C)Oc3ccc(cc3Cl)C[C@H]3NC(=O)[C@H](N)c5ccc(O)c(c5)Oc5cc(O)cc(c5)[C@H](NC3=O)C(=O)N[C@H]4C(=O)N[C@H]3C(=O)N[C@@H]2C(=O)N[C@H](C(=O)NCCCNCCCN)c2cc(O)cc(O[C@H]4O[C@H](CO)[C@@H](O)[C@@H](O)[C@@H]4O)c2-c2cc3ccc2O)O[C@@H](CO)[C@@H](O)[C@@H]1O | 350000

----------
Overview of recorded MIC for various compounds
# Tested on: Streptococcus pneumoniae
# Method: Minimum inhibitory concentration against Streptococcus pneumoniae L 44
# Format: functional
Value type: MIC (µg/mL)

NCCCNCCNCCCNC(=O)[C@H]1NC(=O)[C@H]2NC(=O)[C@H](NC(=O)[C@@H]3NC(=O)[C@H]4NC(=O)[C@@H](Cc5ccc(c(Cl)c5)Oc5cc3cc(c5O)Oc3ccc(cc3Cl)[C@H]2O)NC(=O)[C@H](N)c2ccc(O)c(c2)Oc2cc(O)cc4c2)c2ccc(O)c(c2)-c2c(O)cc(O)cc21 | 0.125
CC(=O)N[C@@H]1[C@H](O[C@@H]2c3ccc(c(Cl)c3)Oc3cc4cc(c3O[C@@H]3O[C@@H](CO)[C@@H](O)[C@H](O)[C@@H]3NC(=O)CCCCCCC(C)C)Oc3ccc(cc3Cl)C[C@H]3NC(=O)[C@H](N)c5ccc(O)c(c5)Oc5cc(O)cc(c5)[C@H](NC3=O)C(=O)N[C@H]4C(=O)N[C@H]3C(=O)N[C@@H]2C(=O)N[C@H](C(=O)O)c2cc(O)cc(O[C@H]4O[C@H](CO)[C@@H](O)[C@@H](O)[C@@H]4O)c2-c2cc3ccc2O)O[C@@H](CO)[C@@H](O)[C@@H]1O | 0.063

----------
# System: Staphylococcus aureus
# Method: Minimum inhibitory concentration against Staphylococcus aureus L 165
# Type: functional
Value type: MIC (µg/mL)

CC(=O)N[C@@H]1[C@H](O[C@@H]2c3ccc(c(Cl)c3)Oc3cc4cc(c3O[C@@H]3O[C@@H](CO)[C@@H](O)[C@H](O)[C@@H]3NC(=O)CCCCCCC(C)C)Oc3ccc(cc3Cl)C[C@H]3NC(=O)[C@H](N)c5ccc(O)c(c5)Oc5cc(O)cc(c5)[C@H](NC3=O)C(=O)N[C@H]4C(=O)N[C@H]3C(=O)N[C@@H]2C(=O)N[C@H](C(=O)NCCCN2CCCCNCCCC2)c2cc(O)cc(O[C@H]4O[C@H](CO)[C@@H](O)[C@@H](O)[C@@H]4O)c2-c2cc3ccc2O)O[C@@H](CO)[C@@H](O)[C@@H]1O | 0.125

----------
# Tested on: Staphylococcus epidermidis
# Method: Minimum inhibitory concentration against Staphylococcus epidermidis ATCC 12228
# Type: functional
Listed below: MIC values for each entry.
Value type: MIC

CC(=O)N[C@@H]1[C@H](O[C@@H]2c3ccc(c(Cl)c3)Oc3cc4cc(c3O[C@@H]3O[C@@H](CO)[C@@H](O)[C@H](O)[C@@H]3NC(=O)CCCCCCC(C)C)Oc3ccc(cc3Cl)C[C@H]3NC(=O)[C@H](N)c5ccc(O)c(c5)Oc5cc(O)cc(c5)[C@H](NC3=O)C(=O)N[C@H]4C(=O)N[C@H]3C(=O)N[C@@H]2C(=O)N[C@H](C(=O)NCCNCCN)c2cc(O)cc(O[C@H]4O[C@H](CO)[C@@H](O)[C@@H](O)[C@@H]4O)c2-c2cc3ccc2O)O[C@@H](CO)[C@@H](O)[C@@H]1O | 0.063 µg/mL
CC(=O)N[C@@H]1[C@H](O[C@@H]2c3ccc(c(Cl)c3)Oc3cc4cc(c3O[C@@H]3O[C@@H](CO)[C@@H](O)[C@H](O)[C@@H]3NC(=O)CCCCCCC(C)C)Oc3ccc(cc3Cl)C[C@H]3NC(=O)[C@H](N)c5ccc(O)c(c5)Oc5cc(O)cc(c5)[C@H](NC3=O)C(=O)N[C@H]4C(=O)N[C@H]3C(=O)N[C@@H]2C(=O)N[C@H](C(=O)N2CCNCCNCCNCCNCCNCC2)c2cc(O)cc(O[C@H]4O[C@H](CO)[C@@H](O)[C@@H](O)[C@@H]4O)c2-c2cc3ccc2O)O[C@@H](CO)[C@@H](O)[C@@H]1O | 0.125 µg/mL
N[C@H]1C(=O)N[C@@H]2Cc3ccc(c(Cl)c3)Oc3cc4cc(c3O)Oc3ccc(cc3Cl)[C@@H](O)[C@@H]3NC(=O)[C@H](NC(=O)[C@@H]4NC(=O)[C@@H](NC2=O)c2cc(O)cc(c2)Oc2cc1ccc2O)c1ccc(O)c(c1)-c1c(O)cc(O)cc1[C@@H](C(=O)NCCN1CCCCNCCCC1)NC3=O | 0.063 µg/mL
CC(=O)N[C@@H]1[C@H](O[C@@H]2c3ccc(c(Cl)c3)Oc3cc4cc(c3O[C@@H]3O[C@@H](CO)[C@@H](O)[C@H](O)[C@@H]3NC(=O)CCCCCCC(C)C)Oc3ccc(cc3Cl)C[C@H]3NC(=O)[C@H](N)c5ccc(O)c(c5)Oc5cc(O)cc(c5)[C@H](NC3=O)C(=O)N[C@H]4C(=O)N[C@H]3C(=O)N[C@@H]2C(=O)N[C@H](C(=O)NCCCN2CCCCN(CCCN)CCCC2)c2cc(O)cc(O[C@H]4O[C@H](CO)[C@@H](O)[C@@H](O)[C@@H]4O)c2-c2cc3ccc2O)O[C@@H](CO)[C@@H](O)[C@@H]1O | 0.063 µg/mL
CC(=O)N[C@@H]1[C@H](O[C@@H]2c3ccc(c(Cl)c3)Oc3cc4cc(c3O[C@@H]3O[C@@H](CO)[C@@H](O)[C@H](O)[C@@H]3NC(=O)CCCCCCC(C)C)Oc3ccc(cc3Cl)C[C@H]3NC(=O)[C@H](N)c5ccc(O)c(c5)Oc5cc(O)cc(c5)[C@H](NC3=O)C(=O)N[C@H]4C(=O)N[C@H]3C(=O)N[C@@H]2C(=O)N[C@H](C(=O)NCCN(CCN)CCN)c2cc(O)cc(O[C@H]4O[C@H](CO)[C@@H](O)[C@@H](O)[C@@H]4O)c2-c2cc3ccc2O)O[C@@H](CO)[C@@H](O)[C@@H]1O | 0.063 µg/mL
CC(=O)N[C@@H]1[C@H](O[C@@H]2c3ccc(c(Cl)c3)Oc3cc4cc(c3O[C@@H]3O[C@@H](CO)[C@@H](O)[C@H](O)[C@@H]3NC(=O)CCCCCCC(C)C)Oc3ccc(cc3Cl)C[C@H]3NC(=O)[C@H](N)c5ccc(O)c(c5)Oc5cc(O)cc(c5)[C@H](NC3=O)C(=O)N[C@H]4C(=O)N[C@H]3C(=O)N[C@@H]2C(=O)N[C@H](C(=O)NCCCNCCNCCCN)c2cc(O)cc(O[C@H]4O[C@H](CO)[C@@H](O)[C@@H](O)[C@@H]4O)c2-c2cc3ccc2O)O[C@@H](CO)[C@@H](O)[C@@H]1O | 0.125 µg/mL
NCCNCCCNCCNC(=O)[C@H]1NC(=O)[C@H]2NC(=O)[C@H](NC(=O)[C@@H]3NC(=O)[C@H]4NC(=O)[C@@H](Cc5ccc(c(Cl)c5)Oc5cc3cc(c5O)Oc3ccc(cc3Cl)[C@H]2O)NC(=O)[C@H](N)c2ccc(O)c(c2)Oc2cc(O)cc4c2)c2ccc(O)c(c2)-c2c(O)cc(O)cc21 | 0.063 µg/mL
NCCCNCCNCCCNC(=O)[C@H]1NC(=O)[C@H]2NC(=O)[C@H](NC(=O)[C@@H]3NC(=O)[C@H]4NC(=O)[C@@H](Cc5ccc(c(Cl)c5)Oc5cc3cc(c5O)Oc3ccc(cc3Cl)[C@H]2O)NC(=O)[C@H](N)c2ccc(O)c(c2)Oc2cc(O)cc4c2)c2ccc(O)c(c2)-c2c(O)cc(O)cc21 | 0.063 µg/mL
NCCNCCNC(=O)[C@H]1NC(=O)[C@H]2NC(=O)[C@H](NC(=O)[C@@H]3NC(=O)[C@H]4NC(=O)[C@@H](Cc5ccc(c(Cl)c5)Oc5cc3cc(c5O)Oc3ccc(cc3Cl)[C@H]2O)NC(=O)[C@H](N)c2ccc(O)c(c2)Oc2cc(O)cc4c2)c2ccc(O)c(c2)-c2c(O)cc(O)cc21 | 0.063 µg/mL
